Could you please report measured Relative activity (%) Nattokinase for the items listed next?
# System: TKU015 nattokinase
# Assay type: biochemical, Pseudomonas sp. TKU015
# cond: concentration 5 mM; 100% represents 19 FU/mL
Param answer (str): number followed by unit.

Enquiry: Could you share which Relative activity (%) Nattokinase value was measured for [Ca+2] [Ca^2+] ?
Return: 108%

Enquiry: Could you share which Relative activity (%) Nattokinase value was measured for [Ba+2] [Ba^2+] ?
Return: 109%

Enquiry: Could you share which Relative activity (%) Nattokinase value was measured for [Cu+2] [Cu^2+] ?
Return: 95%

Enquiry: Could you share which Relative activity (%) Nattokinase value was measured for [Al+3] [Al^3+] ?
Return: 101%

Enquiry: Could you share which Relative activity (%) Nattokinase value was measured for O=S(=O)(F)Cc1ccccc1 [PMSF, phenylmethanesulfonyl fluoride] ?
Return: 45%

Enquiry: Could you share which Relative activity (%) Nattokinase value was measured for [Mg+2] [Mg^2+] ?
Return: 104%

Enquiry: Could you share which Relative activity (%) Nattokinase value was measured for [Mn+2] [Mn^2+] ?
Return: 102%

Enquiry: Could you share which Relative activity (%) Nattokinase value was measured for [Fe+2] [Fe^2+] ?
Return: 232%

Enquiry: Could you share which Relative activity (%) Nattokinase value was measured for [Zn+2] [Zn^2+] ?
Return: 94%
